Target: 20S proteasomes purified from a B-LCL cell line (immunoproteasomes) (Homo sapiens, UniProt P28062+P28065+P40306)
Construct: 20S proteasomes were purified from a B-LCL cell line; endogenous in cells; purified after Groettrup et al. 1995
Experiment: In vitro proteasome mediated cleavage analysis
Type: biochemical
Design: key: intact epitope found in digestion fragments: (+), present; (-), not present
Conditions: after 1 h digestion
attribute_measured: Intact Fragment: intact epitope found in digestion fragments

Known results for compounds:
[[record]]
compound_string = "CC[C@H](C)[C@H](NC(=O)[C@H](CC(C)C)NC(=O)[C@H](Cc1c[nH]cn1)NC(=O)[C@H](CCC(N)=O)NC(=O)[C@H](CC(C)C)NC(=O)[C@H](CC(C)C)NC(=O)[C@H](CO)NC(=O)[C@H](CCC(N)=O)NC(=O)[C@H](CC(C)C)NC(=O)[C@H](C)N)C(=O)O"
reported_result = "-"

[[record]]
compound_string = "CC[C@H](C)[C@H](NC(=O)[C@H](Cc1c[nH]cn1)NC(=O)[C@H](CO)NC(=O)[C@@H](N)CC(C)C)C(=O)N[C@@H](Cc1c[nH]cn1)C(=O)N[C@@H](C)C(=O)N[C@@H](CO)C(=O)N[C@@H](CO)C(=O)N[C@@H](Cc1ccc(O)cc1)C(=O)O"
reported_result = "-"

[[record]]
compound_string = "CC(C)C[C@H](NC(=O)[C@H](C)NC(=O)[C@H](CCC(N)=O)NC(=O)[C@H](CC(C)C)NC(=O)[C@H](CS)NC(=O)[C@H](CCC(N)=O)NC(=O)[C@H](CC(C)C)NC(=O)[C@H](CO)NC(=O)[C@H](CC(C)C)NC(=O)[C@@H](N)Cc1ccccc1)C(=O)N[C@@H](Cc1ccc(O)cc1)C(=O)O"
reported_result = "-"

[[record]]
compound_string = "CC(C)C[C@H](NC(=O)[C@H](CC(C)C)NC(=O)[C@H](CCC(=O)O)NC(=O)[C@H](CCCNC(=N)N)NC(=O)[C@H](CC(C)C)NC(=O)[C@H](CCCNC(=N)N)NC(=O)[C@H](C)NC(=O)[C@H](Cc1c[nH]cn1)NC(=O)[C@H](CC(C)C)NC(=O)[C@@H](N)Cc1ccc(O)cc1)C(=O)O"
reported_result = "+"

[[record]]
compound_string = "CC[C@H](C)[C@H](NC(=O)[C@H](CC(C)C)NC(=O)[C@H](Cc1ccc(O)cc1)NC(=O)[C@H](CO)NC(=O)[C@H](Cc1ccccc1)NC(=O)[C@H](CC(C)C)NC(=O)[C@@H](N)CCC(=O)O)C(=O)N[C@@H](CCC(=O)O)C(=O)N[C@@H](CCCCN)C(=O)N[C@H](C(=O)O)C(C)C"
reported_result = "-"


Query string: What value of Intact Fragment: intact epitope found in digestion fragments has been recorded for this entry: `CC[C@H](C)[C@H](NC(=O)[C@H](C)NC(=O)[C@H](CC(C)C)NC(=O)[C@H](C)NC(=O)[C@H](CCC(=O)O)NC(=O)[C@H](CC(=O)O)NC(=O)[C@H](CCCCN)NC(=O)[C@H](CC(C)C)NC(=O)[C@H](CC(C)C)NC(=O)[C@@H](N)CO)C(=O)O`
Result string: +

Query string: Any idea what its Intact Fragment: intact epitope found in digestion fragments is? The compound is `CC(C)C[C@H](NC(=O)[C@@H]1CCCN1C(=O)[C@H](CCC(=O)O)NC(=O)[C@@H]1CCCN1C(=O)[C@H](CO)NC(=O)[C@@H](NC(=O)[C@H](CC(=O)O)NC(=O)[C@@H](NC(=O)[C@@H](N)CC(C)C)[C@@H](C)O)C(C)C)C(=O)N[C@@H](CCC(N)=O)C(=O)N[C@@H](C)C(=O)O`
Result string: +

Provenance of the data: patent US10450356B2
